System: HOP-18 NSCLC
Measurement description: NCI tumour cell line growth inhibition, 48 h
Property label: TGI

> print(dat)
                                    compound  property.label     result
 1  CCOC(=O)C1C(=S)NC(=O)C1C#N (stereo not given)             TGI   > 100 µM
 2        N#CC(=C1C=CC(=NO)C=C1)c1ccc(Cl)cc1             TGI   > 100 µM
 3             O=C(CCl)NNC1=Nc2ccc(Cl)cc2SC1             TGI    3.36 µM
 4         C#C[C@]1(O)CCCC2=CC(=O)CC[C@@]21C             TGI   > 100 µM
 5  CCCP1(=O)C=C(C)C(=C(Cl)Cl)C(C)=C1 (stereo not given)             TGI   > 100 µM
 6  C=CC1(NC(=O)c2ccccc2)CCC(C(C)(C)C)CC1 (stereo not given)             TGI  > 95.6 µM
 7  COc1cccc(NC(=O)CSc2nnc(-c3ccc(NC(C)=O)cc3)o2)c1             TGI   > 100 µM
 8  O=C(O)c1ccc(C2COc3ccc(Cl)cc3C2)cc1 (stereo not given)             TGI   > 100 µM
 9  N#C[C@H](OC1OC(COC2OC(CO)C(O)C(O)C2O)C(O)C(O)C1O)c1ccccc1 (stereo not given in full)             TGI   > 250 µM
10  COC(=O)c1onc(-c2c(OC)cc(OC)cc2OC)c1C(=O)OC             TGI   > 100 µM
11  O=C1OC2(CC1C1(O)C3CC4CC(C3)CC1C4)C1CC3CC(C1)CC2C3 (stereo not given)             TGI    35.8 µM
12  COc1nc(=O)n(COC(CO)CN2C(=O)c3ccccc3C2=O)cc1Cc1cccc(OCc2ccccc2)c1 (stereo not given)             TGI    72.5 µM
13        O=C(CSc1nnc(Cc2ccccc2)o1)Nc1ccccc1             TGI   > 100 µM
14  Cc1ccc(C2OC(COCc3ccc(Cl)cc3)C(OCc3ccc(Cl)cc3)C2O)cc1 (stereo not given)             TGI   > 100 µM
15  CCCNC(=O)C(C)C1CCC2(C)C=CC(=O)C(C)=C2C1O (stereo not given)             TGI   > 100 µM

====

Tested on: EKVX NSCLC
Measurement description: NCI tumour cell line growth inhibition, 48 h
Below is a list of entries, each paired with its recorded TGI value.
Property label: TGI

> print(dat)
                                    compound  property.label    result
 1  CCN(CC)CC1c2ccccc2C(CNc2ccccc2)N1C (configuration not stated)             TGI  > 100 µM
 2  OCCNCCN1CCN(CCCN2c3ccccc3Sc3ccc(C(F)(F)F)cc32)CC1             TGI   52.3 µM
 3  Fc1ccc(C2SCc3nc4ccccc4n32)c(F)c1 (configuration not stated)             TGI  > 100 µM
 4  CC#CCC1CCC(OCC)=CC1=O (configuration not stated)             TGI  > 100 µM
 5                          NCCSS(=O)(=O)CCN             TGI  > 100 µM
 6  CN1CCN(C(=O)c2cc(-c3ccc4ncnc(N5CCc6cc(F)c(Cl)cc65)c4c3)cnc2N)CC1             TGI   1.55 µM
 7             COc1cccc(OC)c1C(=O)OCc1ccccc1             TGI  > 100 µM
 8            O=c1ssc(=Nc2ccccc2)n1-c1ccccc1             TGI  > 100 µM
 9  O=C(CCCN1CCC2(CC1)CC(c1ccccc1)OC2=O)c1ccc(F)cc1 (configuration not stated)             TGI  > 100 µM
10  NC(CSC1c2ccccc2-c2ccccc21)C(=O)O (configuration not stated)             TGI  > 100 µM
11             COc1ccc(C=O)c([N+](=O)[O-])c1             TGI  > 100 µM
12                   COc1cc2c3c(c1)CCCN3CCC2             TGI   > 10 µM

====

Test system: SN12C renal
Measurement description: NCI tumour cell line growth inhibition, 48 h
Property label: TGI

> print(dat)
                                    compound  property.label     result
 1     Clc1ccc(Nc2nc3ccccc3nc2-c2cccs2)cc1Cl             TGI   > 100 µM
 2  CC(=O)OC12C=C(C)C(C(C)C1)C1C(=O)N(CCN3CCOCC3)C(=O)C12 (stereo not given)             TGI   > 100 µM
 3  C[C@]12CC[C@@H]3c4cc(OCC(F)(F)F)c(O)cc4CC[C@H]3[C@@H]1CC[C@@H]2O             TGI    15.5 µM
 4  Cc1ccc2c(C3Cc4ccccc4N3C(=O)/C=C\C(=O)O)c(C)[nH]c2c1 (stereo not given)             TGI   > 100 µM
 5      CC(C)(C)OC(=O)N/N=C(/N)Cc1ccc(Cl)cc1             TGI   > 100 µM
 6  COc1cc2c(cc1OC)C1C=NC(C2)c2cc(OC)c(OC)cc21 (stereo not given)             TGI   > 100 µM
 7  O=C(NC1=C(Cl)C(=O)c2ccccc2C1=O)c1ccc(F)cc1             TGI    14.5 µM
 8          CNC(=O)C1(N)c2ccccc2C=Cc2ccccc21             TGI   > 100 µM
 9  CCN(CC)c1ccc2cc(C(=O)Nc3ccc4[nH]c(C(=O)N5C[C@@H](CCl)c6c5cc(OC(=O)Nc5ccccc5)c5[nH]cc(C)c65)cc4c3)oc2c1             TGI  > 1000 µM
10      N#Cc1c(N2CCOCC2)nc(=S)[nH]c1-c1ccco1             TGI   > 100 µM

====

Below is a list of entries, each paired with its recorded TGI value.
Test system: SK-MEL-2 melanoma
Measurement description: NCI tumour cell line growth inhibition, 48 h
Property label: TGI (µM)

> print(dat)
                                    molecule  property.label  inequality.symbol  numeric.result
 1  Nc1ccn(C2C=C(CO)C(O)C2O)c(=O)c1 (configuration not stated)             TGI                  >             625
 2  c1ccc2c(c1)C1CCCCCC21N1CCOCC1 (configuration not stated)             TGI                  >             100
 3  Cc1c(/C=N/N=C/c2[nH]c(C(=O)OC(C)(C)C)c(C)c2C)[nH]c(C(=O)OC(C)(C)C)c1C             TGI                  >             100
 4                        CC1(O)C=CC(=O)C=C1             TGI                  =              56
 5        CN(C)CCCN1c2ccccc2Sc2ccc3ccccc3c21             TGI                  =            13.1
 6  Cc1ccc(C2OC(COCc3ccc(Cl)cc3)C(OCc3ccc(Cl)cc3)C2O)cc1 (configuration not stated)             TGI                  =              31
 7   O=C(NC1CCCCC1)NS(=O)(=O)c1ccc2c(c1)CCC2             TGI                  >             100
 8  NC(=O)c1csc(C2OC(CO)C(O)C2O)n1 (configuration not stated)             TGI                  =            6440
 9  Cc1cc(S(=O)(=O)/N=C(/N)Nc2ccccc2O)c(SCc2ccccc2)cc1Cl             TGI                  =            26.2
10  CC(C)(C)OC(=O)NC(Cc1ccccc1)OCc1ccccc1 (configuration not stated)             TGI                  =            74.7
11          O=S(=O)(c1ccc(Cl)cc1)C(Cl)(Cl)Cl             TGI                  =            19.9
12  CCC(CCCN)Nc1cc(OC)cc2c(C)ccnc12 (configuration not stated)             TGI                  =            41.5

Values were extracted from PubChem BioAssay (NCI).
